In this section we review reported 100 nM monkey C5-mmh Bound (RU) values for a set of binders.
Molecular target: T1, monkey C5-mmh (monkey, UniProt P01031 19-1676 (human entry), limits assumed)
T1 construct: Expressed with a C-terminal myc-myc-hexahistidine tag
T1 chain: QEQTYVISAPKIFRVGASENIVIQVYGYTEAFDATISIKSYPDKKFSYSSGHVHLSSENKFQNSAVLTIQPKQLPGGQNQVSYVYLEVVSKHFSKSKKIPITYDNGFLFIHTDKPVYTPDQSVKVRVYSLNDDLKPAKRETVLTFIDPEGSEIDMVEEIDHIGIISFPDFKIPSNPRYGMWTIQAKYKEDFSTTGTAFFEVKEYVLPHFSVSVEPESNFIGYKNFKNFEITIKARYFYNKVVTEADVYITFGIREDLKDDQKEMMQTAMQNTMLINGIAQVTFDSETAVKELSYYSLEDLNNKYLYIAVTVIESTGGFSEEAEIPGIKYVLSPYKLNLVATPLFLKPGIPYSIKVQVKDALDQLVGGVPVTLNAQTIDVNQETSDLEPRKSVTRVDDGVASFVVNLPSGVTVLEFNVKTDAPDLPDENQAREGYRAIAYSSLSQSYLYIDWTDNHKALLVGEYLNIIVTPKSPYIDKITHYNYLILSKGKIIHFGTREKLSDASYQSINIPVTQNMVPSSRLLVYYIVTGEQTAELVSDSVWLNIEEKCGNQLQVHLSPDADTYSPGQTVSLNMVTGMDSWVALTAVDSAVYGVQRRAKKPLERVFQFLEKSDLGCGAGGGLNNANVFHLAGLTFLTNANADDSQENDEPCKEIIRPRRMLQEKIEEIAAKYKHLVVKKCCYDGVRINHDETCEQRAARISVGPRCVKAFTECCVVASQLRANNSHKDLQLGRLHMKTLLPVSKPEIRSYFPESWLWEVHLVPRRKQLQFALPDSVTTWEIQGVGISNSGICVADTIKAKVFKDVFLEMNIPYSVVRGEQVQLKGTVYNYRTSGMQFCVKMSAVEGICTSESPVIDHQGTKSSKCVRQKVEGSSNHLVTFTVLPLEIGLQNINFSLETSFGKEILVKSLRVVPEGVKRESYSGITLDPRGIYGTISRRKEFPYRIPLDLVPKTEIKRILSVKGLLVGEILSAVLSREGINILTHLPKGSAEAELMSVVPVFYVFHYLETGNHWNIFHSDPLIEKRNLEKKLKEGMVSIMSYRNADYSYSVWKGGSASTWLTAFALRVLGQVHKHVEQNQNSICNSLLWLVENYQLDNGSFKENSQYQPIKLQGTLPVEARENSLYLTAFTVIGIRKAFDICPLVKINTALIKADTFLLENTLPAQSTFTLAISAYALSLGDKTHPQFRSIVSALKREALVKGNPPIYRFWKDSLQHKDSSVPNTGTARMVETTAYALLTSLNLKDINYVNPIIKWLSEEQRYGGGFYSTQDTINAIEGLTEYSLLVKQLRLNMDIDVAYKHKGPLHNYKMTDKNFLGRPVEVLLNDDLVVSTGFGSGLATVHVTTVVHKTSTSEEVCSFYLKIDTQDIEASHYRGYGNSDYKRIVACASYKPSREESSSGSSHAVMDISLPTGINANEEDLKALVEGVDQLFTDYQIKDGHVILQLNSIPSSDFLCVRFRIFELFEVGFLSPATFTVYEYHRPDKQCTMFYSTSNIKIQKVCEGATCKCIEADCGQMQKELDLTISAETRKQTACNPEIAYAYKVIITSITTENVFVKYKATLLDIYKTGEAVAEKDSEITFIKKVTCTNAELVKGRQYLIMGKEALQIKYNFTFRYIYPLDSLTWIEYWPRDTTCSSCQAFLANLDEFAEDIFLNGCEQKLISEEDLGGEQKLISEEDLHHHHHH
Assay: SPR, mAb captured by anti-hFc, 25C

Binder | 100 nM monkey C5-mmh Bound (RU)
H4H11686N (antibody, human IgG4, V domains shown, also called H2M11686N) VH: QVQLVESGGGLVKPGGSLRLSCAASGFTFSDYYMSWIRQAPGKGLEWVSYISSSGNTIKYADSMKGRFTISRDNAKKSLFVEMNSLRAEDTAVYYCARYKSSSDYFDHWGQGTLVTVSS VL: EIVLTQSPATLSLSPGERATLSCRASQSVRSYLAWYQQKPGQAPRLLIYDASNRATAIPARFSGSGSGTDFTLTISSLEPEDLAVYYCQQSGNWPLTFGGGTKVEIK | 247
H4H12166P7 (antibody, human IgG4, V domains shown, human IgG4 Fc with S108P hinge mutation) VH: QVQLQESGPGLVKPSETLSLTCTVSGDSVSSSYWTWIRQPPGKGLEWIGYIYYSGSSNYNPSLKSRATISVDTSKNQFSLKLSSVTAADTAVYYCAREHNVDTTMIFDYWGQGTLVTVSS VL: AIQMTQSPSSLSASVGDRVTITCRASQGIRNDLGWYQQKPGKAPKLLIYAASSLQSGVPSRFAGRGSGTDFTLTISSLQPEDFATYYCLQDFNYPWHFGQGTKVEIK | 36
H4H12166P9 (antibody, human IgG4, V domains shown, human IgG4 Fc with S108P hinge mutation) VH: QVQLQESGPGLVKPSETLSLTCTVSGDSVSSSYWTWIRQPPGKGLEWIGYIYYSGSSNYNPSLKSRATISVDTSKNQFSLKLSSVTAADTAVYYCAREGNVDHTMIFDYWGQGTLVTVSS VL: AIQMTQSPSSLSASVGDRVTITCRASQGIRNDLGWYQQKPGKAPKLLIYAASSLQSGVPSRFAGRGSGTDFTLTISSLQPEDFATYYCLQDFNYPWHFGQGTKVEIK | 55
H4H12164P (antibody, human IgG4, V domains shown) VH: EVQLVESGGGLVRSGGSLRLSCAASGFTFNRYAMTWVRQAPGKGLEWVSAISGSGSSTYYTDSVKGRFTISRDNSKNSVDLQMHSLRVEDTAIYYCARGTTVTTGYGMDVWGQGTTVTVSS VL: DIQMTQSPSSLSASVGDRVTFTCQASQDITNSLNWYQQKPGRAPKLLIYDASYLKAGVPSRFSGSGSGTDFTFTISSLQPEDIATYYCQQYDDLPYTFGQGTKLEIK | 66
H4H12166P5 (antibody, human IgG4, V domains shown, human IgG4 Fc with S108P hinge mutation) VH: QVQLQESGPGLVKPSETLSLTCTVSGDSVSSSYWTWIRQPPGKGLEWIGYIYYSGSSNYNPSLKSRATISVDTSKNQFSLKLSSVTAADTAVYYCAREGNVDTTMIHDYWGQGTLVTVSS VL: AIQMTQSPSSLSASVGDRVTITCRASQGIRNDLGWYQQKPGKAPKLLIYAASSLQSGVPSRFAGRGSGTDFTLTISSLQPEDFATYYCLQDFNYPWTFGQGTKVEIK | 56
